- Measurement Target: ALK2 kinase (Homo sapiens (Human), UniProt Q04771)
- Sequence (Q04771 21-509): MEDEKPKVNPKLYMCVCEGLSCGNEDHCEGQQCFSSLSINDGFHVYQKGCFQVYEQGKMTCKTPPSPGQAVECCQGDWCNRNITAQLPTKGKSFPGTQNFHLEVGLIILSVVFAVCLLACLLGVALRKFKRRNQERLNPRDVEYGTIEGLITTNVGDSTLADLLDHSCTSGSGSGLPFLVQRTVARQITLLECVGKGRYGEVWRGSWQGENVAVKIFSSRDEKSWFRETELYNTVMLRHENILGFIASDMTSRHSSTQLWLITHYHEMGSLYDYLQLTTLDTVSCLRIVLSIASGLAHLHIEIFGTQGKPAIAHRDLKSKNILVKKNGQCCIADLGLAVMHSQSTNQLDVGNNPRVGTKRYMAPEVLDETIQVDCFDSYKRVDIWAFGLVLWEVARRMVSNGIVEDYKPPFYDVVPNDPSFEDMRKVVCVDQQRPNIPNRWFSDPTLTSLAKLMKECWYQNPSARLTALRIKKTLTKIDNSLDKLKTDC
- Assay Comment: Inhibitory activity test of the compounds on ALK2 (Promega ALK2 Kinase Enzyme System, ADP-Glo)
- Type: biochemical
- Test Conditions: ADP-Glo chemiluminescence, 65 μM ATP substrate mix; read-out: IC50 (nM) values of the inhibitory activities on ALK2
Measurement Name: IC50

1. COc1cc(Nc2nccc(Nc3cccnc3-c3ccccn3)n2)cc(OC)c1OC [Compound I*, reference compound]
≥ 500 nM

Request: Please supply the value of reported IC50 for the item `COc1cc(Nc2ncc(OC)c(Nc3cccnc3-c3ccccn3)n2)ccc1C1CCOCC1`
Response: 150 to 500 nM

Request: Please supply the value of reported IC50 for the item `COc1cc(Nc2nccc(Nc3cccnc3-c3ccccn3)n2)ccc1C1CCOCC1`
Response: 150 to 500 nM

Request: Please supply the value of reported IC50 for the item `COc1cc(Nc2nccc(Nc3ccc(C)nc3-c3ccccn3)n2)ccc1C1CCN(C)CC1`
Response: ≤ 150 nM

Request: Please supply the value of reported IC50 for the item `COc1cc(Nc2nccc(Nc3cccnc3-c3ccccn3)n2)ccc1C1CCN(C)CC1`
Response: ≤ 150 nM
